Reported TGI values for a set of compounds
- System: T-47D breast
- procedure summary: NCI tumour cell line growth inhibition, 48 h
Kindly answer with a numeric value in µM, unit omitted.

[
  {
    "compound": "CN(C)c1ccc2cc(-c3ccccc3F)c(N)nc2c1",
    "assayed system": "T-47D breast",
    "TGI, µM": 13.6
  }
]

Query: # value lookup — system T-47D breast, readout TGI, item C=C1CC[C@@H]2[C@](C)(COC(C)=O)[C@H](OC(C)=O)CC[C@@]2(C)[C@@H]1CC(Nc1ccc(S(=O)(=O)Nc2nccc(C)n2)cc1)C1=CCOC1=O (stereo partly specified)
Reply: 8.33

Query: # value lookup — system T-47D breast, readout TGI, item COCc1cc2c(cc1/C=C/[N+](=O)[O-])OCO2
Reply: 41.8

Query: # value lookup — system T-47D breast, readout TGI, item Cc1cc2c3ccccc3n(C)c2c2c1C(=O)C=CC2=O
Reply: 19.4

Query: # value lookup — system T-47D breast, readout TGI, item CN1CN(c2ccccc2)C2(CCN(CCc3csc4ccccc34)CC2)C1=O
Reply: 54.2

###

- Test system: OVCAR-8 ovarian
- procedure summary: NCI tumour cell line growth inhibition, 48 h
assay readout: TGI (µM)
Kindly answer with a numeric value in µM, unit omitted.

[
  {
    "compound": "CC[n+]1c(/C=C/c2ccc(N(CCCl)CCCl)cc2)ccc2cc(NC(=O)/C=C/c3ccccc3)ccc21",
    "recorded value": 5.7
  },
  {
    "compound": "CCC1C(c2cc(OC)c(OC)c(OC)c2)c2cc3c(cc2OC1N1CCOCC1)OCO3 (stereo not given)",
    "recorded value": 17.6
  },
  {
    "compound": "CCc1cc(O)c(Cl)c(C)c1Cl",
    "recorded value": 40.6
  }
]

Query: Any idea what its TGI is? The compound is CC(CNC(Cc1ccccc1)c1ccccc1)NC(Cc1ccccc1)c1ccccc1 (stereo not given)
Reply: 6.17

###

Reported TGI values for a set of compounds
- System: NCI/ADR-RES ovarian
- procedure summary: NCI tumour cell line growth inhibition, 48 h

Examples with answers:
[
  {
    "compound": "Fc1ccc2[nH]c3c(NCCCN4CCOCC4)ncnc3c2c1",
    "TGI": "> 100 µM"
  },
  {
    "compound": "Cn1ccnc1C(=O)/C=C/c1ccc(CC(=O)Nc2ccccc2)cc1",
    "TGI": "> 25 µM"
  },
  {
    "compound": "CC(=O)OCC1=C(C)C(OC(=O)C(OC(C)=O)[C@@H](NC(=O)c2ccccc2)c2ccccc2)CCC1(C)C (some centres not stated)",
    "TGI": "> 100 µM"
  },
  {
    "compound": "CCC1C(c2cc(OC)c(OC)c(OC)c2)c2cc3c(cc2OC1N1CCOCC1)OCO3 (configuration not stated)",
    "TGI": "> 100 µM"
  }
]

Query: Any idea what its TGI is? The compound is CN(CCOc1ccc(C#N)cc1)CCOc1ccc(C#N)cc1
Reply: > 100 µM

Query: Any idea what its TGI is? The compound is CCCCCCCCCCCC[n+]1ccc(CCCCCCCCC)cc1
Reply: 3.62 µM

Query: Any idea what its TGI is? The compound is COc1ccc2c3c(c(=O)n(C)c2c1OC)C=CC(C)(C)O3
Reply: 64.3 µM
